# Test system: Cavia porcellus
# assay-notes: Percent decrease in bronchodilator activity against acetylcholine-induced bronchospasm reaction in guinea pig by intraveneous administration at dose 250 ug/kg
# Format: functional
Reported Decrease values for the following compounds.
Value expressed in %; do not type the unit.

Cn1c(=O)c2c(ncn2CC(O)CN2CCN(CCCSc3ccc(Cl)cc3)CC2)n(C)c1=O (centres undefined) = 0
Cc1ccc(SCCCN2CCN(CC(O)Cn3cnc4c3c(=O)n(C)c(=O)n4C)CC2)cc1 (centres undefined) = 0
Cc1cc(OCCCN2CCN(CC(O)Cn3c(=O)c4c(ncn4C)n(C)c3=O)CC2)cc(C)c1Cl (centres undefined) = 0
Cn1c(=O)c2nc[nH]c2n(C)c1=O.O = 72
Cn1cnc2c1c(=O)n(CCCN1CCN(CCCOc3ccccc3)CC1)c(=O)n2C = 30

Consider "COc1cc(OCCCN2CCN(CCCn3cnc4c3c(=O)n(C)c(=O)n4C)CC2)cc(OC)c1OC" . Its measured Decrease is 0

Consider "Cn1c(=O)c2c(ncn2CCCN2CCN(CCCCSc3ccc(Cl)cc3)CC2)n(C)c1=O" . Its measured Decrease is 26

Consider Cn1c(=O)c2c(ncn2CC(O)CN2CCN(CCOc3ccccc3)CC2)n(C)c1=O (centres undefined) . Its measured Decrease is 0

Consider Cn1c(=O)c2c(ncn2CCCN2CCN(CC(O)CSc3ccccc3)CC2)n(C)c1=O (centres undefined) . Its measured Decrease is 0

Consider "Cn1c(=O)c2c(ncn2CCCCCCN2CCN(CCCCSc3ccccc3)CC2)n(C)c1=O" . Its measured Decrease is 23

Consider "Cn1cnc2c1c(=O)n(CCCN1CCN(CCCSc3ccc(Cl)cc3)CC1)c(=O)n2C" . Its measured Decrease is 27

Consider COc1ccc(OCCCN2CCN(CC(O)Cn3c(=O)c4c(ncn4C)n(C)c3=O)CC2)cc1 (centres undefined) . Its measured Decrease is 11

Consider CC(C(=O)N1CCN(CCCSc2ccccc2)CC1)n1cnc2c1c(=O)n(C)c(=O)n2C (centres undefined) . Its measured Decrease is 4

Consider "Cn1c(=O)c2c(ncn2CCCN2CCN(CCCOc3ccc(Cl)cc3)CC2)n(C)c1=O" . Its measured Decrease is 0

Consider "Cn1c(=O)c2c(ncn2CC(=O)N2CCN(CCCSc3ccccc3)CC2)n(C)c1=O" . Its measured Decrease is 16

Consider "Cn1c(=O)c2c(ncn2CCN2CCN(CCCSc3ccccc3)CC2)n(C)c1=O" . Its measured Decrease is 0

Consider "Cc1ccc(SCCCN2CCN(CCCn3c(=O)c4c(ncn4C)n(C)c3=O)CC2)cc1" . Its measured Decrease is 24

Consider Cn1c(=O)c2c(ncn2CC(O)CN2CCN(CCCCSc3ccc(Cl)cc3)CC2)n(C)c1=O (centres undefined) . Its measured Decrease is 0

Consider Cn1c(=O)c2c(ncn2CC(O)CN2CCN(CCCOc3ccc(Cl)cc3)CC2)n(C)c1=O (centres undefined) . Its measured Decrease is 0

###

# Test system: Cavia porcellus
# assay-notes: Percent decrease in bronchodilator activity against acetylcholine-induced bronchospasm reaction in guinea pig by intraveneous administration at dose 250 ug/kg
# Format: functional
Think of 10% as a floor: if Decrease stands on it or above, it is yes (1); beneath it, no (0).

Solved entries (count: 8):
COc1ccc(OCCCN2CCN(CCCn3cnc4c3c(=O)n(C)c(=O)n4C)CC2)cc1 = yes (1)
Cn1c(=O)c2c(ncn2CC(O)CN2CCN(CCCSc3ccccc3)CC2)n(C)c1=O (stereo not given) [TAZIFYLLINE] = yes (1)
Cn1cnc2c1c(=O)n(CC(O)CN1CCN(CCCSc3ccc(Cl)cc3)CC1)c(=O)n2C (stereo not given) = yes (1)
Cn1c(=O)c2c(ncn2CN2CCN(CCCSc3ccccc3)CC2)n(C)c1=O = no (0)
Cn1c(=O)c2c(ncn2CC(O)CN2CCCN(CCCSc3ccccc3)CC2)n(C)c1=O (stereo not given) = no (0)
Cn1c(=O)c2c(ncn2CCCN2CCN(CCCSc3ccc(Cl)cc3)CC2)n(C)c1=O = no (0)
COc1ccc(SCCCN2CCN(CCCn3cnc4c3c(=O)n(C)c(=O)n4C)CC2)cc1 = no (0)
Cn1c(=O)c2c(ncn2CCC(O)CCN2CCN(CCCSc3ccccc3)CC2)n(C)c1=O (stereo not given) = yes (1)

Check the entry "Cn1c(=O)c2c(ncn2CCCN2CCN(CCOc3ccccc3)CC2)n(C)c1=O" : does Decrease equal or exceed 10%?
yes (1)

Check the entry Cn1c(=O)c2c(ncn2CC(O)CN2CCN(CCCCSc3ccccc3)CC2)n(C)c1=O (stereo not given) : does Decrease equal or exceed 10%?
yes (1)

Check the entry Cn1cnc2c1c(=O)n(CCCN1CCN(CC(O)CSc3ccccc3)CC1)c(=O)n2C (stereo not given) : does Decrease equal or exceed 10%?
no (0)

Check the entry COc1ccc(OCCCN2CCN(CC(O)Cn3cnc4c3c(=O)n(C)c(=O)n4C)CC2)cc1 (stereo not given) : does Decrease equal or exceed 10%?
no (0)

Check the entry Cn1cnc2c1c(=O)n(CC(O)CN1CCN(CCCOc3ccc(Cl)cc3)CC1)c(=O)n2C (stereo not given) : does Decrease equal or exceed 10%?
yes (1)

Check the entry Cn1cnc2c1c(=O)n(CC(O)CN1CCN(CCCSc3ccccc3)CC1)c(=O)n2C (stereo not given) : does Decrease equal or exceed 10%?
yes (1)

Check the entry "Cc1ccc(SCCCN2CCN(CCCn3cnc4c3c(=O)n(C)c(=O)n4C)CC2)cc1" : does Decrease equal or exceed 10%?
yes (1)

Check the entry CC(CN1c2ccccc2Sc2ccccc21)N(C)C (stereo not given) [PROMETHAZINE] : does Decrease equal or exceed 10%?
no (0)
